Attribution: patent US20030073218A1

- target_or_test_system: Cdc28-as1 (F88G Cdc28) (Saccharomyces cerevisiae, UniProt P00546, F88G)
- Sequence (P00546 whole entry F88G): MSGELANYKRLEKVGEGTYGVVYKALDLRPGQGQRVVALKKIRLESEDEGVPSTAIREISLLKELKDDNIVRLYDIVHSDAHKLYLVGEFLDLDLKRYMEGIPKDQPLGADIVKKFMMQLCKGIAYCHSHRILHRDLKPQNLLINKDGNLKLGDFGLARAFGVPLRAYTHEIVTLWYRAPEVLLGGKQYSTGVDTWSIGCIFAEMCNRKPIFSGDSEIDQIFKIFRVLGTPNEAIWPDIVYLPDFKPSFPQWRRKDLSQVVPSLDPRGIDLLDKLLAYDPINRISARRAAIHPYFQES
- Sequence (P24869 whole entry, further chain): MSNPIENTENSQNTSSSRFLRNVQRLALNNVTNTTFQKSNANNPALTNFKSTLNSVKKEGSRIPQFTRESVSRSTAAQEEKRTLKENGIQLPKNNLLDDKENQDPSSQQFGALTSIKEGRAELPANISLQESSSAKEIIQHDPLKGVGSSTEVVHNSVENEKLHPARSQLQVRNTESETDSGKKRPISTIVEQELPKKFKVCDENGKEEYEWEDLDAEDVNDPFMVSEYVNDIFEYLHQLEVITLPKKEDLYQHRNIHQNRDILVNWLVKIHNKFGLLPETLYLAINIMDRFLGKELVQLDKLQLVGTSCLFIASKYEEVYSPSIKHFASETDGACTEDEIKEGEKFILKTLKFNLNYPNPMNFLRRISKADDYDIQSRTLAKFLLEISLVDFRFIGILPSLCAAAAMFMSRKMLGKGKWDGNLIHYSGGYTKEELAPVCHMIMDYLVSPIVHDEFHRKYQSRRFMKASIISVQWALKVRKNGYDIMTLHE
- test_name: In vitro sensitivity of Cdc28 kinases to PP1 derivatives (Example 19)
- applied_conditions: read-out: IC50, engineered Cdc28
reported_metric: IC50 (nM)
One number for each entry, in nM.

So what does the record say about IC50 for `CC(C)(C)n1nc(Cc2cccc3ccccc23)c2c(N)ncnc21` ? 3.9

----------
- target_or_test_system: I338G v-Src (Rous sarcoma virus subgroup A, UniProt P00524, DEL77-225/I338G)
- Construct: screened against the catalytic domain of the target kinase, I338G v-Src; made in house; host or cells: E. coli DH5a, pGEX-KT
- test_name: biochemical
- Format: biochemical
- applied_conditions: Table 3; read-out: IC50, 1338G v-Src
reported_metric: pIC50
One number for each entry, as −log10 of the molar value.

So what does the record say about pIC50 for CC(C)(C)n1nc(Cc2cccc3ccccc23)c2c(N)ncnc21 [Compound 6h] ? 8.38

----------
- target_or_test_system: WT v-Src (Rous sarcoma virus subgroup A, UniProt P00524, DEL77-225)
- Construct: mutant of the v-Src catalytic domain, (the XD4 fragment) were made as glutathione S-transferase (GST) fusion proteins; made in house; host or cells: E. coli (DH5a), pGEX-KT
- test_name: biochemical
- Type: biochemical
- applied_conditions: Table 3, wild type; read-out: IC50, vSrc
reported_metric: pIC50
Numbers only, as −log10 of the molar value.

So what does the record say about pIC50 for `CC(C)(C)n1nc(Cc2cccc3ccccc23)c2c(N)ncnc21` ? 4.55

----------
- target_or_test_system: WT Fyn (Homo sapiens)
- Construct: GST (N); made in house; host or cells: E. coli DH5a, pGEX-KT
- Sequence (P06241 1-534 isoform P06241-2): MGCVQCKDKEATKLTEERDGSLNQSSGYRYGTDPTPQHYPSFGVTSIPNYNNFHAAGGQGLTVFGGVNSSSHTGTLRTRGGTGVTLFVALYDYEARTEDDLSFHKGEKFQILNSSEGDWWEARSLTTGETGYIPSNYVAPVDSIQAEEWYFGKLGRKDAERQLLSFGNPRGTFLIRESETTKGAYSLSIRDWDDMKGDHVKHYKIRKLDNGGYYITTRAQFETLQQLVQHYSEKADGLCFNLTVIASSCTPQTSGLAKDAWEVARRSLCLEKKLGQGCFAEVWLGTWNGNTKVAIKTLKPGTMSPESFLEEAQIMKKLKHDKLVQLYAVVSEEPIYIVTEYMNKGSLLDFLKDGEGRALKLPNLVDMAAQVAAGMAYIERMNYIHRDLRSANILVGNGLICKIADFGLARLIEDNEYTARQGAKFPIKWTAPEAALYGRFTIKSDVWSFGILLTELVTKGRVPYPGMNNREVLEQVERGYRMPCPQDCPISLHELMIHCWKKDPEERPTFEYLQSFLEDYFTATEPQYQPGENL
- test_name: In Vitro Kinase Inhibition Assay
- Assay type: biochemical
reported_metric: inhibition of WT Fyn (in words)

CC(C)(C)n1nc(-c2ccccc2)c2c(N)ncnc21 [2 (FIG. 14), reference compound] = highly potent (low nM)
Cc1ccc(-c2nn(C(C)(C)C)c3ncnc(N)c23)cc1 [PP1, reference compound] = highly potent (low nM)

----------
- target_or_test_system: GST-XD4 (Rous sarcoma virus subgroup A, UniProt P00524, DEL77-225)
- test_name: biochemical
- Procedure: Kinetic constants were determined by analysis of Lineweaver-Burk plots of the rate data (64).
reported_metric: Ki
Answer with the figure and its unit, nothing else.

What is its Ki for GST-XD4 (Rous sarcoma virus subgroup A, UniProt P00524, DEL77-225)? Entry: `O=P(O)(O)OP(=O)(O)OP(=O)(O)OC[C@H]1O[C@@H](n2cnc3c(NC4CCCC4)ncnc32)[C@H](O)[C@@H]1O` 2000 µM

----------
- target_or_test_system: WT Fyn (Homo sapiens)
I'd appreciate it if you could supply pIC50 values for the items below.
One number for each entry, as −log10 of the molar value.

CC(C)(C)c1ccc(-c2nn(C(C)(C)C)c3ncnc(N)c23)cc1 = 5.04
CC(C)(C)n1nc(-c2cccc(Oc3ccccc3)c2)c2c(N)ncnc21 = 6.10
CC(C)(C)n1nc(-c2cccc(OCc3c(Cl)cccc3Cl)c2)c2c(N)ncnc21 = 4.08

Required: pIC50, one value per compound below.
1. CC(C)(C)n1nc(-c2ccc3ccccc3c2)c2c(N)ncnc21
2. CC(C)(C)n1nc(-c2cccc(OCc3ccccc3)c2)c2c(N)ncnc21

[6.89, 5.22]
